# Format: in vivo, CD-1 mice
# RECORDED CONDITIONS: male, CD-1, mouse, brain, iv, 25 mg/kg
READOUT LABEL: Tmax (min)
Use min as the unit, but write only the number.

# query: Tmax of entry O=C1OCC/C=C/CC/C=C/C(=N/OCC(=O)N2CCCCC2)Cc2c(Cl)c(O)cc(O)c21
15

---

# Type: in vivo, CD-1 mice
# RECORDED CONDITIONS: male, CD-1, mouse, plasma, iv, 25 mg/kg
READOUT LABEL: C0 at 0.5 h

# query: C0 at 0.5 h of entry O=C1OCC/C=C/CC/C=C/C(=N/OCC(=O)N2CCCCC2)Cc2c(Cl)c(O)cc(O)c21
4530 ng/mL

---

# Assay type: in vivo, CD-1 mice
# RECORDED CONDITIONS: male, CD-1, mouse, plasma, iv, 70 mg/kg
READOUT LABEL: Vd (L/kg)
Use L/kg as the unit, but write only the number.

# query: Vd of entry O=C1OCC/C=C/CC/C=C/C(=N/OCC(=O)N2CCCCC2)Cc2c(Cl)c(O)cc(O)c21
51.5

---

# ASSAY: Brain concentrations of HSP90 inhibitors after a single i.p. injection
# RECORDED CONDITIONS: NCR-Nude, mouse, intraperitoneal, 150 mg/kg
READOUT LABEL: concentration at 12 h (ng/g)
Use ng/g as the unit, but write only the number.

# query: concentration at 12 h of entry O=C1OCC/C=C/CC/C=C/C(=N/OCC(=O)N2CCCCC2)Cc2c(Cl)c(O)cc(O)c21
3420
